Item-by-item account of pKd
Assay System: integrin alphaV beta3 (Homo sapiens, UniProt P06756;P06756;P05106 P06756:31-889,P06756:891-1048,P05106:27-788)
Sequence (P06756 31-889, chain 1 of 3): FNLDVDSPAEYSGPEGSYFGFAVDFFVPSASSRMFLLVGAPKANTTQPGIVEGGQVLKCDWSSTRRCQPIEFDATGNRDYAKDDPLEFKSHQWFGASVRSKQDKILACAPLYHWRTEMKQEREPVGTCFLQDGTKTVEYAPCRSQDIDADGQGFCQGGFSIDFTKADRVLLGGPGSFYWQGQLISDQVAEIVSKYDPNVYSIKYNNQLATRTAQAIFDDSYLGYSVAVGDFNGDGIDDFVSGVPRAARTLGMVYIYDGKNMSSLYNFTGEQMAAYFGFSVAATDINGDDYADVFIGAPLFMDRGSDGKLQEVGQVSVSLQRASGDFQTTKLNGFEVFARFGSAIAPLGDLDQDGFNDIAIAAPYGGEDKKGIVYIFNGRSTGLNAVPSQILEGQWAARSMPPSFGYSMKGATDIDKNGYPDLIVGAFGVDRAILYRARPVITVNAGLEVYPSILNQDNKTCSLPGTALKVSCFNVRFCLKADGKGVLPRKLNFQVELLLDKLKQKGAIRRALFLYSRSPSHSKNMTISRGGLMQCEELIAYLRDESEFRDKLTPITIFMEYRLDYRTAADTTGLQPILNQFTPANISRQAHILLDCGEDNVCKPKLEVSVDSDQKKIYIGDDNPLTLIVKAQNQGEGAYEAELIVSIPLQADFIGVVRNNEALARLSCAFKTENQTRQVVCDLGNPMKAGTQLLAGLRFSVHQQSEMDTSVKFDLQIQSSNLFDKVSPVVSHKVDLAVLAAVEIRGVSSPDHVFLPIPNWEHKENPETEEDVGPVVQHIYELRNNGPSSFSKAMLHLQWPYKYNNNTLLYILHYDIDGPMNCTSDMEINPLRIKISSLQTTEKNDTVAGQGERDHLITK
Sequence (P06756 891-1048, chain 2 of 3): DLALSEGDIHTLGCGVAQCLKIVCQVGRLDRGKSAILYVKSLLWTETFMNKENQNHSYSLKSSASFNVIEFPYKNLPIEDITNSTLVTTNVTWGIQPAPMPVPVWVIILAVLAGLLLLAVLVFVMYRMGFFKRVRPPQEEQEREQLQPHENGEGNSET
Sequence (P05106 27-788, chain 3 of 3): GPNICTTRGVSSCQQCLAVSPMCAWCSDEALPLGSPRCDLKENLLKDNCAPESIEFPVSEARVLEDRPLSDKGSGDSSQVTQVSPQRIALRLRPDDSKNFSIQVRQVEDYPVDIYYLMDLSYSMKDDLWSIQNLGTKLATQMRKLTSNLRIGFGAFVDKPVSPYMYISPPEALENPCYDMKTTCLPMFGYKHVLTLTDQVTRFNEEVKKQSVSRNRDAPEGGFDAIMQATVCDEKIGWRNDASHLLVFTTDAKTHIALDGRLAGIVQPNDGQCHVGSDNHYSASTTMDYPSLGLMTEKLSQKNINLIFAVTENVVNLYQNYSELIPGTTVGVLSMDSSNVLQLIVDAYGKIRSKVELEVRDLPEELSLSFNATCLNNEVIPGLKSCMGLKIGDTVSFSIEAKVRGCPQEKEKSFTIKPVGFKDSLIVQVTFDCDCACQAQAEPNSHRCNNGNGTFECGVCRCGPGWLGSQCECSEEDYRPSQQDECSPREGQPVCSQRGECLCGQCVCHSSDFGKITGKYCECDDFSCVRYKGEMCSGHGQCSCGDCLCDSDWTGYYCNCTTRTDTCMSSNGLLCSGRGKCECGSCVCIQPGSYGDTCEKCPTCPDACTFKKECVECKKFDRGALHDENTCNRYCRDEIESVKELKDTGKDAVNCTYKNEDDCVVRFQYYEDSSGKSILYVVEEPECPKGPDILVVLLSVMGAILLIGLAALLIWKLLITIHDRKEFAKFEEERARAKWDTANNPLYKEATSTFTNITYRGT
Protocol Details: microtiter plate, streptavidin-AP; Mg2+, Ca2+, Mn2+, pH 7.5, 37 C
Condition Notes: label: 5'-biotin
The value called pKd is obtained by taking minus log10 of the concentration in mol/L.

15.14 (ssRNA, 2'-F C and U) RNA: GGGAGACAAGAAUAAACGCUCAAUUCAACAUUGUCCAAGGGCUUAUAUGAGCGGAUUACCCUUCGACAGGAGGCUCACAACAGGC :: 8.22

Supply measured pKd of 15.50 (17.3) (ssRNA, 2'-F C and U) RNA: GGGAGACAAGAAUAAACGCUCAAUUCGACGCUGUGAAGGGCUUAUACGAGCGGAUUACCCUUCGACAGGAGGCUCACAACAGGC in your reply.
7.52

Using the record for 15.3 (17.17) (ssRNA, 2'-F C and U) RNA: GGGAGACAAGAAUAAACGCUCAAUUCAACGUUGUCCAAGGGCUUAUAUGAGCGGAUUACCCUUCGACAGGAGGCUCACAACAGGC , state its measured pKd.
8.10

Quick one: give measured pKd for 15.18 (ssRNA, 2'-F C and U) RNA: GGGAGACAAGAAUAAACGCUCAAUUCAACGCUGUGAAGGGCUUAUAUGAGCGGAUUACCCUUCGACAGGAGGCUCACAACAGGC
8.70
